# Test system: A498
# assayInfo: NCI tumour cell line growth inhibition, 48 h
Calls of active or inactive are those of the source. No stated cut-off is given here; in the data, active = GI50 up to about 1.1 µM and inactive = higher.
Outcomes: active, inactive

* Cc1ccc(S(=O)(=O)N2CCNCCN(S(=O)(=O)c3ccc(C)cc3)CCN(S(=O)(=O)c3ccc(C)cc3)CC2)cc1 | inactive
* COc1ccc2c(c1)C/C(=C\c1ccc(O)c(OC)c1)C2=O | inactive
* COc1ccccc1N1C(=O)CC(=O)N(C(=O)CCCCCCCCC(=O)N2C(=O)CC(=O)N(c3ccccc3OC)C2=S)C1=S | inactive
* O=C(O)CSc1cc(-c2ccccc2)nc2ccccc12 | inactive
* CCSc1nc(COC(=O)NC)c(COC(=O)NC)n1C | inactive
* COC(=O)C1c2cc3c(cc2C(OC2OC(C)C(OC)C(C)(OC)C2OC)CC1(C)O)C(=O)c1c(O)cc2c(c1C3=O)OC1OC2(C)C(O)C([N+](C)(C)[O-])C1O (centres undefined) | active
* CC1OC(OC2C(O)COC(OC3C(C)OC(OC4C(OC(=O)[C@]56CCC(C)(C)C[C@@H]5C5=CCC7[C@@]8(C)C[C@H](O)[C@H](OC9OC(CO)C(O)C(O)C9O)[C@@](C)(CO)[C@@H]8CC[C@@]7(C)[C@]5(C)CC6)OCC(O)C4O)C(O)C3OC3OCC(O)(CO)C3O)C2O)C(O)C(O)C1O (some centres undefined) | inactive
* Cc1cc(C)nc(NC(=S)Nc2ccc([N+](=O)[O-])cc2)c1 | inactive
* O=C(O)CCN1CCN(CCC(=O)O)CCN(CCC(=O)O)CC1 | inactive
* CC1(C)Oc2ccc(Cl)cc2C12CC2 | inactive
* COc1cc2c(cc1O)C(Cc1ccc(OCc3ccccc3)c(OCc3ccccc3)c1)N(C(=O)NCCc1ccccc1)CC2 (centres undefined) | inactive
* COc1ccc2nc3c(c(N)c2c1)C1CCC3C1(C)C (centres undefined) | inactive
* Cc1ccc2[nH]/c(=N/S(=O)(=O)c3cc(C)c(Cl)cc3S)[nH]c2c1 | inactive
* CCOC(CN=C=S)OCC | inactive
* N/C(=N\O)N/N=C/c1cccs1 | inactive
* N#CC(CC(=O)O)=C(c1ccccc1)c1ccccc1 | inactive
* C[C@@]1(CBr)C[C@@](C)(/C=C/Cl)[C@@H](Cl)C[C@H]1Cl | inactive
* COc1cc(OC)c(/C=C/c2cnc3ccccc3n2)c(OC)c1 | inactive
* COc1cc(C(=O)Oc2c(C#N)sc3c2c(=O)n(-c2ccccc2)c(=S)n3-c2ccccc2)cc(OC)c1OC | inactive
